Recorded values, source patent US20240018237A1.

The binders listed here are annotated with their pEC50.
molecular target: T1, human ROR1 (full-length, on the cell surface) (human, UniProt Q01973 30-937); assay: flow cytometry, Jeko-1 cells
T1 construct: whole, on cells; the tumour cell lines carry their own ROR1; also called Ba/F3-ROR1 cells; Jeko-1
T1 sequence (Q01973 30-937): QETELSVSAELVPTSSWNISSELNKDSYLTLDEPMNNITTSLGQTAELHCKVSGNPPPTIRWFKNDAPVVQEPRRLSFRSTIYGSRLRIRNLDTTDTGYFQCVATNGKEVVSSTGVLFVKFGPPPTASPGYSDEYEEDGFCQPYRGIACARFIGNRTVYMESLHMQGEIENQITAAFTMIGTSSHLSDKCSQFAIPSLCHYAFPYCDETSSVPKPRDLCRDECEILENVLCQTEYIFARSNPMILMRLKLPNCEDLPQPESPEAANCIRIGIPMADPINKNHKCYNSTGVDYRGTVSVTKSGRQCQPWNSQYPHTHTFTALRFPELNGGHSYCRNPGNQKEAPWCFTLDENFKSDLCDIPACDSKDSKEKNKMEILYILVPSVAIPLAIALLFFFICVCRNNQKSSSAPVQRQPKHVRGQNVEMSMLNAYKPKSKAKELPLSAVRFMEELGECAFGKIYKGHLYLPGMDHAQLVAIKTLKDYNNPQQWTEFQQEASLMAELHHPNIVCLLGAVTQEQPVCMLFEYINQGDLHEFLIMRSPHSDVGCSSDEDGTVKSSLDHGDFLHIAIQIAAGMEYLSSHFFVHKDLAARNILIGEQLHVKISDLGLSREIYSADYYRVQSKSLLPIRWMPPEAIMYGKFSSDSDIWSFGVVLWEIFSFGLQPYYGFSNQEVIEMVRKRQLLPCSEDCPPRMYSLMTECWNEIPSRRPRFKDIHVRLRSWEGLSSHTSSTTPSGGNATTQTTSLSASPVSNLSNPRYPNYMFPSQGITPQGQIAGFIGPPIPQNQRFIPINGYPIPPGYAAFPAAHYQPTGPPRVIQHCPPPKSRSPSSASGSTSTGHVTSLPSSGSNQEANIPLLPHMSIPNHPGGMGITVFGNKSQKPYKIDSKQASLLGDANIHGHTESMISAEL
The read-out pEC50 is expressed as -log10 of concentration in moles per litre.

Some binders with recorded pEC50:
1. 19F6-Hu35V10 (antibody, human IgG1, kappa, V domains shown, humanized, human IgG1 / kappa) VH: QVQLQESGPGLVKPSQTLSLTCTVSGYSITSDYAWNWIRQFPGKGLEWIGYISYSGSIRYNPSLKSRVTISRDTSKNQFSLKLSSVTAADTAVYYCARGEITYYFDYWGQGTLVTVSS VL: ETTLTQSPAFMSATPGDKVTISCKASTDIDSDMNWYQQKPGKPPKLIISEGNTLRPGIPPRFSSSGYGTDFTFTIRKIESEDAADYYCLQSNDLPLTFGQGTKLEIKR : 9.46
2. 38F8-Hu36 (antibody, human IgG1, kappa, V domains shown, humanized, human IgG1 / kappa) VH: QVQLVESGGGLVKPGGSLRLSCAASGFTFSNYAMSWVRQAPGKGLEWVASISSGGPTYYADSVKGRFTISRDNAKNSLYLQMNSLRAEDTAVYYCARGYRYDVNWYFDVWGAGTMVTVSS VL: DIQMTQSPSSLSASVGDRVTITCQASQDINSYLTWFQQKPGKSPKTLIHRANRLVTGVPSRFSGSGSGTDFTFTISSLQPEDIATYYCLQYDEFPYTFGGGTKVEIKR : 10.05
3. 38F8-Hu37 (antibody, human IgG1, kappa, V domains shown, humanized, human IgG1 / kappa) VH: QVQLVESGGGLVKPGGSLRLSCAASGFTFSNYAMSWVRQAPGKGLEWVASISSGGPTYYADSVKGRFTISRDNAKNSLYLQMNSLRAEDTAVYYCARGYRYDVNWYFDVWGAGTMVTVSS VL: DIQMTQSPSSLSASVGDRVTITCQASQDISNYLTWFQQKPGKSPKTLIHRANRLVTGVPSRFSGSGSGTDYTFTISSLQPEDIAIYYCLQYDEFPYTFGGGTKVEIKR : 10.00
4. 3D8-Hu45 (antibody, human IgG1, kappa, V domains shown, humanized, human IgG1 / kappa) VH: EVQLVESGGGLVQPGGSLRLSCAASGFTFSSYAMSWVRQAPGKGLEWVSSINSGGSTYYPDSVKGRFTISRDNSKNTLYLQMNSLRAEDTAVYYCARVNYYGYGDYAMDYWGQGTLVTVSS VL: DIQMTQSPSSLSASVGDRVTITCQASQDINSYLSWFQQKPGKAPKTLIYRANRLVTGVPSRFSGSGSGTDFTFTISSLQPEDIATYYCLQYDEFPYTFGGGTKLEIKR : 10.10
5. 38F8-Hu16 (antibody, human IgG1, kappa, V domains shown, humanized, human IgG1 / kappa) VH: EVQLVESGGGLVQPGGSLRLSCTASGFTFSNYAMSWVRQAPGKGLEWVASISSGGPTYYADSVKGRFTVSRDNSRNTLYLQMNSLRAEDTAVYYCARGYRYDVNWYFDVWGRGTLVTVSS VL: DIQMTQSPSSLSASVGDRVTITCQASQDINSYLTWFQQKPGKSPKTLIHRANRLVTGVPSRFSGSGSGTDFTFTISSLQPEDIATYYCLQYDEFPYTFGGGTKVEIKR : 10.10
6. 19F6-Hu24 (antibody, human IgG1, kappa, V domains shown, humanized, human IgG1 / kappa) VH: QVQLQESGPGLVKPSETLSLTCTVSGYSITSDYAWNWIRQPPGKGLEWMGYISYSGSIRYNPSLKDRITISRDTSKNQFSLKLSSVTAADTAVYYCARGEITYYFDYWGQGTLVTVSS VL: DIQMTQSPSSLSASVGDRVTITCQTSTDIDDDLNWYQQKPGKPPKLLISEGNTLETGVPSRFSGSGSGTDFTFTISSLQPEDIADYYCLQSNDLPLTFGAGTKLEIKR : 9.70
7. 3D8-Hu85 (antibody, human IgG1, kappa, V domains shown, humanized, human IgG1 / kappa) VH: EVQLVESGGGLVQPGGSLRLSCAASGFTFSSYAMSWVRQAPEKRLEWVSSISSGGSTYYPDSVKGRFTISRDNSKNTLYLQMNSLRAEDTAVYYCARVNYYGYGDYAMDYWGQGTLVTVSS VL: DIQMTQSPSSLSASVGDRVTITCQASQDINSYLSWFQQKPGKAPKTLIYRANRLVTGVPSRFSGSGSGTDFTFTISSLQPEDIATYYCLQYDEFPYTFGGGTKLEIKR : 9.96
8. 19F6-Hu11 (antibody, human IgG1, kappa, V domains shown, humanized, human IgG1 / kappa) VH: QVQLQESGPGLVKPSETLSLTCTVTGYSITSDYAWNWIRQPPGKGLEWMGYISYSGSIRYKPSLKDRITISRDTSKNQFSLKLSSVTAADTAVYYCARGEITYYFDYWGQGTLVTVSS VL: DIQMTQSPSSLSASVGDRVTITCITTTDIDDDMNWYQQKPGKAPKLLISEGNTLRPGVPSRFSGSGYGTDFTLTISSLQPEDFATYYCLQSNDLPLTFGQGTKLEIKR : 9.82

Task: What value of pEC50 has been reported for the following binder? 3D8-Hu25 (antibody, human IgG1, kappa, V domains shown, humanized, human IgG1 / kappa) VH: EVQLVESGGGLVQPGGSLRLSCAASGFTFSSYAMSWVRQAPGKGLEWVASINSGGSTYYPDSVKGRFTISRDNAKNSLYLQMNSLRAEDTAVYYCARVNYYGYGDYAMDYWGQGTLVTVSS VL: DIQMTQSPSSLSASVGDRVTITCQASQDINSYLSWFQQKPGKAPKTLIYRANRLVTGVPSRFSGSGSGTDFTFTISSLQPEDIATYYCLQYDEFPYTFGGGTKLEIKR
Result: 10.15

Task: What value of pEC50 has been reported for the following binder? 19F6-Hu12 (antibody, human IgG1, kappa, V domains shown, humanized, human IgG1 / kappa) VH: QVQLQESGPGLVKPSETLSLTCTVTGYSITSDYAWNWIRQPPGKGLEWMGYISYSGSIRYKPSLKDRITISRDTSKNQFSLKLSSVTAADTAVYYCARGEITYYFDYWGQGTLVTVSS VL: DIQMTQSPSSLSASVGDRVTITCITTTDIDDDMNWYQQKPGKAPKLLISEGNTLQSGVPSRFSGSGYGTDFTLTISSLQPEDFATYYCLQSNDLPLTFGQGTKLEIKR
Result: 9.77
